Measured inhibition at 50 µM, listed per entry.
measured.target: mitochondrial ceramidase (Rattus norvegicus, UniProt Q91XT9)
Sequence (Q91XT9 whole entry): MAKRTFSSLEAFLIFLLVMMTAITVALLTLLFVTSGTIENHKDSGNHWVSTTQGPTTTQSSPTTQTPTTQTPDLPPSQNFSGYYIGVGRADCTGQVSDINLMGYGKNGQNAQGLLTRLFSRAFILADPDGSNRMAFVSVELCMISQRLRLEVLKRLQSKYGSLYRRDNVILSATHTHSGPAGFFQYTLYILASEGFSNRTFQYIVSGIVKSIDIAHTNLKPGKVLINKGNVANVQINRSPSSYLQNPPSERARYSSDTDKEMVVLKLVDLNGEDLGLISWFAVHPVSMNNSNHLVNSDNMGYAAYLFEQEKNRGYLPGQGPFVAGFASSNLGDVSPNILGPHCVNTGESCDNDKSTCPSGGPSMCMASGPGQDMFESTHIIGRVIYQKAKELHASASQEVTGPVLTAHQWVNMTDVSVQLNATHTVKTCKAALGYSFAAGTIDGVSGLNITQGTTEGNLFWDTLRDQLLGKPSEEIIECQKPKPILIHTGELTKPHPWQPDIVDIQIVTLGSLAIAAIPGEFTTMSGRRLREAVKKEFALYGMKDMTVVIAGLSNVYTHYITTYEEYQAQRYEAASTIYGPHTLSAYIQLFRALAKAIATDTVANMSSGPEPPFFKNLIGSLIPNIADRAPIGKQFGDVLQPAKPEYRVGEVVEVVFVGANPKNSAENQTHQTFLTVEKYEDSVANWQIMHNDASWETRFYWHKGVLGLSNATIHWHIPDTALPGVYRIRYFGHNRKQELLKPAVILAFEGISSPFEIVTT
measurement.notes: mitochondrial ceramidase (mt-CDase) activity, radioactive assay or HPLC assay
Format: biochemical
condition.parameters: inhibitor at 0.625 mole % (50 μM); read-out: inhibition (maximal inhibition) of mt-CDase activity
Report only the number, with the unit % understood.

molecule	inhibition at 50 µM / %
CCCCCCCCCCCCC/C=C/C(=O)[C@H](CO)NC(=O)CCCCCCCCCCCCCCC [3-keto-C16-Cer, 3-keto-C16-ceramide]	53
CCCCCCCCCCCCCC#C[C@@H](O)[C@@H](N)CO [D-e-deh-Sph, D-erythro-dehydrosphingosine]	75
CCCCCCCCCCCCC/C=C\[C@@H](O)[C@@H](N)CO [cis-D-e-Sph, cis-D-erythro-sphingosine]	10
CCCCCCCCCCCCC/C=C/[C@@H](O)[C@H](CO)NC(=O)NCCCCCCCCCCCCCCCC [Compound C16-urea-Cer]	75
CCCCCCCCCCCCC/C=C/[C@@H](O)[C@@H](N)CO [D-e-Sph, D-erythro-sphingosine, reference compound]	98
CCCCCCCCCCCCC/C=C/C(=O)[C@@H](N)CO [Compound 3-keto-Sph, 3-keto-sphingosine]	35

Please turn your attention to the following entry.
Task: I'd like to know its inhibition at 50 µM. The molecule in question is CCCCCCCCCCCCCC#CC(=O)[C@@H](N)CO [3-keto-deh-Sph, 3-keto-dehydrosphingosine]
Result: 15

----------
Collected Estimated IC50 (mole %) values appear next to each entry.
measured.target: mitochondrial ceramidase (Rattus norvegicus)
measurement.notes: mitochondrial ceramidase (mt-CDase) activity, radioactive assay or HPLC assay
Type: biochemical
condition.parameters: Table 1, ceramide analogues; hydrolysis of D-erythro-C16 or C18-ceramide at 0.625 mole % (50 μM)

compound	attribute.measured	recorded.value
CCCCCCCCCCCCC/C=C/[C@H](O)[C@H](CO)NC(=O)CCCCCCCCCCCCCCCCC [L-t-C18-Cer, L-threo-C18-ceramide]	Estimated IC50 (mole %)	0.11 mole %

Here is the next item to consider.
Task: For the compound CCCCCCCCCCCCC/C=C/[C@@H](O)[C@@H](CO)NC(=O)CCCCCCCCCCCCCCCCC [D-t-C18-Cer, D-threo-C18-ceramide] , what Estimated IC50 (mole %) is on record?
Result: 0.21 mole %

----------
measured.target: mitochondrial ceramidase (Rattus norvegicus)
measurement.notes: mitochondrial ceramidase (mt-CDase) activity, radioactive assay or HPLC assay
Assay type: biochemical
condition.parameters: varying D-erythro-ceramide concentration
attribute.measured: type of inhibition (double reciprocal analysis: Km increased, Vmax unchanged)

compound	measured.target	recorded.value
CCCCCCCCCCCCC/C=C/[C@@H](O)[C@H](CO)NC(=O)NCCCCCCCCCCCCCCCC	mitochondrial ceramidase (Rattus norvegicus)	competitive inhibitor
CCCCCCCCCCCCC/C=C/[C@@H](O)[C@H](CO)NCCCCCCCCCCCCCCCCCC	mitochondrial ceramidase (Rattus norvegicus)	competitive inhibitor

----------
measured.target: mitochondrial ceramidase (Rattus norvegicus)
measurement.notes: mitochondrial ceramidase (mt-CDase) activity, radioactive assay or HPLC assay
Format: biochemical
condition.parameters: concentrations as stated at the place

compound	measured.target	effect on mt-CDase activity (in words)
CCCCCCCCCCCCCC#CC(=O)[C@@H](N)CO [3-keto-deh-Sph, 3-keto-dehydrosphingosine]	mitochondrial ceramidase (Rattus norvegicus)	weaker
CCCCCCCCCCCCC/C=C/[C@@H](O)[C@@H](N)COC	mitochondrial ceramidase (Rattus norvegicus)	weaker
CCCCCCCCCCCCC/C=C/[C@@H](O)[C@H](CO)NC(=O)NCCCCCCCCCCCCCCCC	mitochondrial ceramidase (Rattus norvegicus)	potent inhibitor
CCCCCCCCCCCCCCCC(=O)C(N)CO (stereo not shown) [3-keto-dh-Sph, 3-keto-dihydrosphingosine]	mitochondrial ceramidase (Rattus norvegicus)	potent inhibitor

----------
measured.target: mitochondrial ceramidase (Rattus norvegicus)
measurement.notes: mitochondrial ceramidase (mt-CDase) activity, radioactive assay or HPLC assay
Type: biochemical
condition.parameters: Table 1, ceramide analogues; hydrolysis of D-erythro-C16 or C18-ceramide at 0.625 mole % (50 μM)
attribute.measured: Estimated IC50 (mole %)

compound	measured.target	recorded.value
CCCCCCCCCCCCC/C=C/[C@@H](O)[C@H](CO)N(C)C(=O)CCCCCCCCCCCCCCC [N-Me-C16-Cer, N-methyl-D-erythro-C16-ceramide]	mitochondrial ceramidase (Rattus norvegicus)	no effect
CCCCCCCCCCCCC/C=C/[C@@H](O)[C@H](CO)NC(=O)NCCCCCCCCCCCCCCCC	mitochondrial ceramidase (Rattus norvegicus)	0.33 mole %
CCCCCCCCCCCCC/C=C/[C@@H](OC)[C@H](CO)NC(=O)CCCCCCCCCCCCCCC [3-O-Me-C16-Cer, 3-O-methyl-D-erythro-C16-ceramide]	mitochondrial ceramidase (Rattus norvegicus)	no effect
CCCCCCCCCCCCC/C=C/[C@H](O)[C@@H](CO)NC(=O)CCCCCCCCCCCCCCCCC [L-e-C18-Cer, L-erythro-C18-ceramide]	mitochondrial ceramidase (Rattus norvegicus)	0.26 mole %
CCCCCCCCCCCCC/C=C/[C@@H](O)[C@H](COC)NC(=O)CCCCCCCCCCCCCCC [1-O-Me-C16-Cer, 1-O-methyl-D-erythro-C16-ceramide]	mitochondrial ceramidase (Rattus norvegicus)	no effect

Task: Consider the compound CCCCCCCCCCCCC/C=C/C(=O)[C@H](CO)NC(=O)CCCCCCCCCCCCCCC [3-keto-C16-Cer, 3-keto-C16-ceramide] and give its measured Estimated IC50 (mole %).
Result: 0.6 mole %

Task: Recorded Estimated IC50 (mole %) of CCCCCCCCCCCCC/C=C\[C@@H](O)[C@H](CO)NC(=O)CCCCCCCCCCCCCCC [cis-D-e-C16-Cer, cis-D-erythro-C16-ceramide] , please.
Result: no effect

----------
measured.target: mitochondrial ceramidase (Rattus norvegicus, UniProt Q91XT9)
measurement.notes: mitochondrial ceramidase (mt-CDase) activity, radioactive assay or HPLC assay
Format: biochemical
condition.parameters: Table 2, sphingosine analogues; hydrolysis of D-erythro-ceramide at 0.625 mole % (50 μM)
Binned Estimated IC50 (mole %); ranges: one: < 0.1 mole %; two: ≥ 0.1 mole % and < 0.2 mole %; three: ≥ 0.2 mole %

molecule	measured.target	answer.label
CCCCCCCCCCCCCC#C[C@@H](O)[C@@H](N)CO [D-e-deh-Sph, D-erythro-dehydrosphingosine]	mitochondrial ceramidase (Rattus norvegicus, UniProt Q91XT9)	three
CCCCCCCCCCCCC/C=C/[C@@H](O)[C@@H](N)CO [D-e-Sph, D-erythro-sphingosine, reference compound]	mitochondrial ceramidase (Rattus norvegicus, UniProt Q91XT9)	one
CCCCCCCCCCCCC/C=C/[C@@H](O)[C@H](CO)NC	mitochondrial ceramidase (Rattus norvegicus, UniProt Q91XT9)	two
CCCCCCCCCCCCCCC[C@@H](O)[C@@H](N)CO [D-e-dh-Sph, D-erythro-dihydrosphingosine]	mitochondrial ceramidase (Rattus norvegicus, UniProt Q91XT9)	three

Task: Band assignment needed for "CCCCCCCCCCCCC/C=C/[C@@H](O)[C@H](CO)NCCCCCCCCCCCCCCCCCC" please.
Result: three

Task: Any idea which band "CCCCCCCCCCCCC/C=C/[C@H](O)[C@@H](N)CO" is in?
Result: two

Task: State the band of "CCCCCCCCCCCCC/C=C/[C@H](O)[C@H](N)CO"
Result: one

Task: Where would "CCCCCCCCCCCCC/C=C/[C@@H](O)[C@H](N)CO" land among the classes by reported Estimated IC50 (mole %)?
Result: two

----------
Overview of reported IC50 across a group of compounds:
measured.target: mitochondrial ceramidase (Rattus norvegicus, UniProt Q91XT9)
Give the value in µM but do not write µM after it.

compound	IC50, µM
CCCCCCCCCCCCC/C=C/[C@H](O)[C@H](CO)NC(=O)CCCCCCCCCCCCCCCCC [L-t-C18-Cer, L-threo-C18-ceramide]	8.8
CCCCCCCCCCCCC/C=C/[C@@H](O)[C@@H](CO)NC(=O)CCCCCCCCCCCCCCCCC [D-t-C18-Cer, D-threo-C18-ceramide]	16.6
CCCCCCCCCCCCC/C=C/[C@H](O)[C@@H](CO)NC(=O)CCCCCCCCCCCCCCCCC [L-e-C18-Cer, L-erythro-C18-ceramide]	20

Okay, next one:
Task: Field: IC50 (mitochondrial ceramidase (Rattus norvegicus, UniProt Q91XT9)). Entry: CCCCCCCCCCCCC/C=C/[C@@H](O)[C@@H](N)CO [D-e-Sph, D-erythro-sphingosine, reference compound]
Result: 3.3

----------
measured.target: mitochondrial ceramidase (Rattus norvegicus, UniProt Q91XT9)
measurement.notes: mitochondrial ceramidase (mt-CDase) activity, radioactive assay or HPLC assay
Assay type: biochemical
condition.parameters: Table 2, sphingosine analogues; hydrolysis of D-erythro-ceramide at 0.625 mole % (50 μM)
Description: The enzymatic activity of mitochondrial ceramidase was determined by either one of the two following methods: a. Radioactive assay: The mt-CDase activity was determined by measuring the release of radioactive fatty acid from tritiated ceramide ([^3H]-C16-Cer), labeled in the acyl chain. […] b. HPLC-assay: The Mt-CDase activity was also determined by measuring the amount of sphingosine released. […] The released sphingosine was quantified as the ortho-phthaldehyde (OPA) derivatives as described (30). […]
attribute.measured: Estimated IC50 (mole %)

Worked examples follow.
molecule	Estimated IC50 (mole %)
CCCCCCCCCCCCCC#CC(=O)[C@@H](N)CO [3-keto-deh-Sph, 3-keto-dehydrosphingosine]	weak
CCCCCCCCCCCCC/C=C/C(=O)[C@@H](N)CO [Compound 3-keto-Sph, 3-keto-sphingosine]	weak
CCCCCCCCCCCCC/C=C/[C@@H](O)[C@H](CO)N(C)C [N,N-diMe-Sph, N,N-dimethyl-D-erythro-sphingosine]	weak
CCCCCCCCCCCCC/C=C/[C@@H](O)[C@@H](N)COC [Compound 1-O-Me-Sph, 1-O-methyl-D-erythro-sphingosine]	weak
CCCCCCCCCCCCCCCC(=O)C(N)CO (centres unmarked) [3-keto-dh-Sph, 3-keto-dihydrosphingosine]	0.2 mole %

Task: I am curious: what Estimated IC50 (mole %) value has been reported for CCCCCCCCCCCCC/C=C\[C@@H](O)[C@@H](N)CO [cis-D-e-Sph, cis-D-erythro-sphingosine] ?
Result: weak
